- Tested on: UO-31 renal
- Protocol details: NCI-60 one-dose screen, 48 h
- Condition parameters: 10 µM
About 83,000 compounds went through this panel and 20% of them were active in at least one assay; those are over-represented in the sample as a whole. Active and inactive are the calls of the source. Rule for the calls: active = growth percent below 10; inactive = the rest.
Select the correct class. Options are yes (1) (active), no (0) (inactive) and nothing else.

Look over these answered cases.
{"Compound": "COc1csc(/C=N/NC(=O)c2[nH]c3ccc(Br)cc3c2-c2ccccc2)c1", "Cat": "no (0)"}
{"Compound": "O=C(COc1ccc(NC(=O)Nc2ccc(Cl)cc2)cc1)N=Nc1c(O)[nH]c2ccc([N+](=O)[O-])cc12", "Cat": "no (0)"}
{"Compound": "O=C(CSc1nnc(-c2ccc3nc(-c4ccc(Cl)cc4)[nH]c3c2)o1)Nc1ccc(Cl)cc1", "Cat": "yes (1)"}
{"Compound": "COc1ccc2[nH]c(=O)c(CSc3cccc(N)c3)cc2c1", "Cat": "no (0)"}
{"Compound": "COc1ccc2[nH]c(O)c(N=NC(=O)COc3ccc(NC(=O)Nc4ccc(Cl)cc4)cc3)c2c1", "Cat": "no (0)"}
{"Compound": "CCCCCCCCCCCCCCCCCCCC(=O)NCCc1c[nH]c2ccc(OC(=O)NOCCOCCOCCOCCOCCOCCOCCOCCOCCOCCOCCOCCOCCOCCOCCOCCOCCOCCOCCOCCOCCOCCOC)cc12", "Cat": "no (0)"}
{"Compound": "C=C[C@H]1[C@H](O[C@@H]2OC(CO)[C@@H](O)[C@H](O)C2OC(=O)c2c(O)cc(O)cc2-c2cccc(O)c2)OC=C2C(=O)OCC[C@H]21 (some centres not stated)", "Cat": "no (0)"}
{"Compound": "COc1cc(NC(=O)c2cc(-c3ccc(F)cc3F)ccc2O)cc(OC)c1OC", "Cat": "yes (1)"}
{"Compound": "Cc1noc2c(Cc3ccccc3)nn(CC(=O)N/N=C/c3ccc(Cl)cc3)c(=O)c12", "Cat": "yes (1)"}
{"Compound": "N#Cc1c(-c2ccc(Cl)cc2)cc(-c2ccccc2)nc1OCc1ccccc1", "Cat": "no (0)"}

What was the test verdict on `Cc1ccc([N+](=O)[O-])c(C(=O)Nc2ccc(-c3ccc4c(c3)NC(=O)/C4=C\c3ccc[nH]3)cc2)c1` ?
no (0)

Check the results log: what was the call for `Cc1ccc2nc(-c3ccc(-c4nnc(SCC(=O)Nc5ccc(Br)cc5)o4)cc3)[nH]c2c1` ?
no (0)

Test call, this compound: `O=C(CSc1nnc(-c2c[nH]c3ccccc23)n1-c1ccccc1)Nc1ccc(C(=O)/C=C/c2ccc(Br)cc2)cc1`
no (0)

What call does the record list for `Brc1ccc(N/N=C/c2c[nH]c3ccccc23)nc1` ?
yes (1)

# fetch the recorded call for `COc1cc(OC(F)(F)F)ccc1C(=O)Nc1sc2c(c1C#N)CCC(=O)C2` here
no (0)

Recorded call for `COc1ccc2[nH]cc(/C=N/Nc3ccc(Br)cn3)c2c1` ?
no (0)

// outcome(item) with item = C#CCNC(=O)CCC(=O)OC[C@]12CC[C@@H](C(=C)C)[C@@H]1C1CC[C@@H]3[C@@]4(C)CCCNC(C)(C)[C@@H]4CC[C@@]3(C)[C@]1(C)CC2 (some centres not stated)
no (0)

* * *

- Tested on: TK-10 renal
- Protocol details: NCI-60 one-dose screen, 48 h (100 = growth as untreated, 0 = no growth, -100 = all killed)
- Condition parameters: 10 µM
Compounds without any hit were thinned out: in the full panel of roughly 83,000, 20% have a hit.
Measured parameter: growth (%)
Give bare numbers, in %.

{"Molecule": "COc1cc(/C=C/C(=O)c2ccc(NC(=O)CSc3nnc(-c4c[nH]c5ccccc45)n3-c3ccccc3)cc2)cc(OC)c1OC", "Recorded measurement": 117}

Could you report growth for every entry in the following list?
1. O=C(NO)c1ccc(-c2nc3ccc4[nH]ncc4c3c3c2CCCC3)cc1
2. COc1ccc(/C=N/N=C(\C)c2ccc3c(c2)Nc2ccccc2S3)cc1O
3. C=C(C)[C@@H]1CC[C@]2(C)[C@H](CC=C3[C@@H]4CC(C)(C)CC[C@]4(C(=O)N4CCOCC4)CC[C@]32C)[C@@]1(C)CCCN
4. O=C(Nc1ccc(Cl)c([N+](=O)[O-])c1)Nc1ccc(Cl)c([N+](=O)[O-])c1
5. COc1cccc(/C=C2\N=C(C)N(CCc3ccc(S(N)(=O)=O)cc3)C2=O)c1
6. Nc1nnc(-c2c[nH]c3ccc(F)cc23)c(-c2c[nH]c3ncccc23)n1
7. CCOC(=O)C(Cc1ccccc1)N1C(=O)/C(=C/N2N=C(c3ccc(OC)cc3)CC2c2ccc3ccccc3c2)SC1=S (stereo not given)
8. C[C@H]1[C@H](C)CC[C@]2(COC(=O)CCC(=O)NCC#CCN3CCNCC3)CC[C@]3(C)C(=CC[C@@H]4[C@@]5(C)CCCNC(C)(C)[C@@H]5CC[C@]43C)[C@H]12

20.2
70.6
-95.7
48.3
97.6
82.9
24.8
70.9

* * *

- System: UACC-257 melanoma
- Protocol details: NCI-60 one-dose screen, 48 h (100 = growth as untreated, 0 = no growth, -100 = all killed)
- Condition parameters: 10 µM
This is part of a sample that, as a whole, favours compounds with a hit. Of some 83,000 tested, about 20% had one in any assay. Activity calls are given as the source filed them. The calls were made as follows: active = growth percent below 10; inactive = the rest.
Measured parameter: growth

Consider the following illustrative entries.
{"Compound": "CN1C(=O)N(C)C2SC(N/N=C/C=C/c3ccccc3)=NC21 (configuration not stated)", "Assayed target": "UACC-257 melanoma", "growth": "83.1% (inactive)"}
{"Compound": "O=C(CSc1nnc(-c2c[nH]c3ccccc23)n1-c1ccccc1)c1ccc(Cl)cc1", "Assayed target": "UACC-257 melanoma", "growth": "72.3% (inactive)"}
{"Compound": "COc1ccc(CN2[C@@H](C(=O)NCc3ccc(C(=O)NO)cc3)Cc3c([nH]c4ccccc34)[C@@H]2C)cc1", "Assayed target": "UACC-257 melanoma", "growth": "32.1% (inactive)"}

# batch size: 7; output growth per entry
1. CO[C@@H]1CSSC1Cn1nc(-c2ccc(Oc3ccccc3)cc2)c2c(N)ncnc21 (some centres not stated)
2. CC(=O)Nc1ccc(-c2cn(-c3cccc(C(=O)Nc4ccc(F)c(C(F)(F)F)c4)c3)nn2)cn1
3. O=C(CNc1nc(-c2ccccc2)cs1)Nc1ccc(Br)cc1
4. COc1ccc(NC(=O)Cn2c(/C=C/c3ccc(N(C)C)cc3)nc3ccccc3c2=O)cc1
5. COc1ccsc1/C=N/NC(=O)c1[nH]c2ccc(Br)cc2c1-c1ccccc1
6. O=C1NC(=NC23CC4CC(CC(C4)C2)C3)N/C1=C\c1ccc2ncoc2c1
7. Cc1ccc(C(C)C)cc1NC(=O)c1ccccc1N(C)C

["10.9% (inactive)", "90.4% (inactive)", "-73.8% (active)", "67.7% (inactive)", "11.4% (inactive)", "4.63% (active)", "86.5% (inactive)"]

Report growth for each item below.
1. COc1cc(OC(F)(F)F)ccc1C(=O)Nc1sc2c(c1C#N)CCC(=O)C2
2. Cc1ccc(S(=O)(=O)c2nc(-c3ccccc3)oc2S(=O)(=O)CC(=O)N2CCCC2)cc1
3. CNCc1cccc2c1OCCCCCC[C@@](C)(O)CC1(CC1)S(=O)(=O)c1ccc(cc1)-c1cnc(N)c(n1)C(=O)N2
4. Cc1ccc(CSc2nc(Cl)c(C#N)c(-c3ccc(F)cc3)n2)cc1
5. Cc1ccc(-c2ccc(SCC(=O)Nc3ccc(Cl)c(C(F)(F)F)c3)nn2)cc1
6. CN1CCN(Cc2ccc(C(=O)Nc3cccc(Nc4ccc5c(O)cccc5n4)c3)cc2C(F)(F)F)CC1
7. COc1ccc(CCN2C(=O)/C(=C/c3csc(C#N)n3)SC2=S)cc1

1: 98% (inactive); 2: -92.2% (active); 3: -75% (active); 4: 75.3% (inactive); 5: 57.6% (inactive); 6: -78.7% (active); 7: -35.3% (active)

Please state growth for every compound in the list that follows.
1. Cc1cc2c(c(O)c1Br)-c1ncoc1C(=O)[C@]1(C)CC[C@H](C(C)C)[C@H]21
2. O=C(CSc1nnc(-c2c[nH]c3ccccc23)n1-c1ccccc1)c1ccc(Br)cc1

1. 15.1% (inactive)
2. 52.6% (inactive)

Each of the following entries comes with a recorded value; kindly state growth for each.
1. CCN1CCN(c2ccc(NC(=O)Nc3ccc4c(c3F)CCN4c3ccnc(C(=O)NC)c3)cc2C(F)(F)F)CC1
2. Cc1cc(C)nc(/N=C(\N)Nc2ccc(S(=O)(=O)Nc3nc(C)cc(C)n3)cc2)n1
3. O=C(Nc1cccc(C(F)(F)F)c1)c1cncc(C#Cc2cnc3ccc(N4CCOCC4)nn23)c1
4. CC(=O)NNc1ccc2nnc(-c3ccc(Br)cc3)n2n1
5. [2H]C([2H])([2H])Oc1ccc2ncc(C#Cc3cncc(C(=O)Nc4ccc(CN5CCN(C)CC5)c(C(F)(F)F)c4)c3)n2n1

["99.3% (inactive)", "108% (inactive)", "3.22% (active)", "105% (inactive)", "-65.9% (active)"]

Fill in growth for each of the 2 compounds listed.
1. O=C(c1ccccc1)n1ccc(-c2cc3cc(Br)ccc3oc2=O)n1
2. CC(C)c1ccc(C(=O)Nc2sc3c(c2C(N)=O)CCC(=O)C3=O)cc1

2.91% (active)
93.8% (inactive)

Batch: growth for all items listed.
1. C=C[C@H]1[C@H](O[C@@H]2OC(CO)[C@@H](O)[C@H](O)C2OC(=O)c2c(O)cc(O)cc2-c2cccc(O)c2)OC=C2C(=O)OCC[C@H]21 (some centres not stated)
2. NS(=O)(=O)c1ccc(NC(=O)CSc2ccc(-c3ccccc3)nn2)c(Br)c1
3. Nc1cccnc1/C=N/NC(=S)NCCNC(=O)c1ccc(-n2nc(-c3ccccc3O)nc2-c2ccccc2O)cc1
4. COc1cc(NC(=O)c2cc(-c3ccc(F)cc3F)ccc2O)cc(OC)c1OC
5. O=C1c2ccccc2C(=O)c2c1c(C(=O)c1ccc(Cl)cc1)n1c2ccc2c3ccccc3ccc21
6. CC(=O)Nc1ccc(-c2cn(-c3cccc(C(=O)Nc4cc(C(F)(F)F)cc(C(F)(F)F)c4)c3)nn2)cn1

1. 90.8% (inactive)
2. 100% (inactive)
3. 7.34% (active)
4. 55.3% (inactive)
5. 107% (inactive)
6. -4.2% (active)

Hi there! I need growth for each item below, if you can.
1. N#Cc1ccc(-c2nn(-c3ccc(C(=O)O)cc3)cc2CNc2cc(Cl)cc(C(F)(F)F)c2)cc1
2. COc1cccc2nc(Nc3cccc(NC(=O)c4ccc(CN5CCCN(C)CC5)c(C(F)(F)F)c4)c3)ccc12
3. O=c1c2ccccc2nc(COc2ccccc2)n1/N=C/c1ccc(F)cc1
4. Cc1ccc(-c2cc(C(=O)N=Nc3c(O)[nH]c4ccc(Br)cc34)c3ccccc3n2)cc1

14.9% (inactive)
-86% (active)
99.8% (inactive)
103% (inactive)

Quote growth reported for `CC(C)(C)Nc1nc2cc(Cl)c(Cl)cc2nc1S(C)(=O)=O` please.
70.6% (inactive)
